- assay: Quantitative High-Throughput drug screen in 47 multiple myeloma cell lines against the NCATS MIPE library collection: FR4_PLB cell viability assay (AID 1918924; further: nearly all actives have a fitted effect of over 35% in size; further: potency means the concentration at half of the fitted maximal effect)
- conditions: FR4_PLB myeloma cells viability, CellTiter-Glo ATP, 48 h; series mostly up to 45.8 µM
Results filed as inconclusive are left out. Calls of active or inactive are those of the source. The call rests on the fitted dose curve; in most records, active means well fitted cell-killing curve with a large enough effect; inconclusive means small, poorly fitted or top-dose-only effect, or effect the other way; inactive means no such curve, though single readings can be large or run the other way.
reported_property: Potency

CN(C)c1nc(N(C)C)nc(N(C)C)n1	inactive
CC(C)(C)C(=O)Oc1ccc(S(=O)(=O)Nc2ccccc2C(=O)NCC(=O)O)cc1	inactive
CC#C[C@]1(O)CC[C@H]2[C@@H]3CCC4=CC(=O)CCC4=C3[C@@H](c3ccc(N(C)C)cc3)C[C@@]21C	1.66 µM (active)
CC1COc2c(N3CCN(C)CC3)c(F)cc3c(=O)c(C(=O)O)cn1c23 (stereo not given)	inactive

Can you share its Potency? I mean this molecule: `CC[C@@]1(O)C(=O)OCc2c1cc1n(c2=O)Cc2cc3c(CN(C)C)c(O)ccc3nc2-1`
2.64 µM (active)

Every entry's value here was drawn from PubChem BioAssay (NCATS).
